system: SF-295 CNS; assay: NCI-60 one-dose screen, 48 h (100 = growth as untreated, 0 = no growth, -100 = all killed); settings: 10 µM unless noted
Compounds without any hit were thinned out: in the full panel of roughly 83,000, 20% have a hit.
Documented growth across a set of compounds
MEASUREMENT LABEL: growth (%)

compound=O=C1/C(=C\c2ccc(Br)o2)SC(=S)N1CCc1ccc(O)cc1 measurement_label=growth endpoint_unit=% reading=94.9
compound=Cc1ccc2c(c1)c(-c1nc(-c3c[nH]c4ncccc34)cs1)cn2C measurement_label=growth endpoint_unit=% reading=101
compound=Clc1ccc(Cn2cc(-c3nc4ccc(Br)nc4n3Cc3ccc(Cl)cc3)c3cccnc32)cc1 measurement_label=growth endpoint_unit=% reading=83.9
compound=O=C(NO)c1ccc(Cn2c(=O)n(-c3ccccc3)c(=O)c3ccccc32)cc1 measurement_label=growth endpoint_unit=% reading=13.6
compound=Cc1ccc(-c2nn(Cc3cn(-c4cc(C)nc5ccccc45)nn3)c3ncnc(N)c23)cc1 measurement_label=growth endpoint_unit=% reading=66.5
compound="N#CC1C(=N)Cc2ccccc2-c2ccccc21 (stereo not given)" measurement_label=growth endpoint_unit=% reading=49
compound=O=C1C=Cc2ncccc2C1=O measurement_label=growth endpoint_unit=% reading=102
compound=Nc1ccccc1NC(=O)c1ccc(CN2CCC/C(=C\c3ccccn3)C2=O)cc1 measurement_label=growth endpoint_unit=% reading=-2.97
compound=COc1cccc(-c2nn(-c3ccccc3)cc2-c2ccnc(NCCNS(=O)(=O)c3ccc(C(F)(F)F)cc3)c2)c1 measurement_label=growth endpoint_unit=% reading=3.05
compound=O=S(=O)(NCCNc1cc(-c2cn(-c3ccccc3)nc2-c2cccc(O)c2)ccn1)c1ccc(F)cc1 measurement_label=growth endpoint_unit=% reading=10.4

* * *

tested on: HT29 colon; assay: NCI-60 one-dose screen, 48 h (100 = growth as untreated, 0 = no growth, -100 = all killed); conditions: 10 µM unless noted
Compounds without any hit were thinned out: in the full panel of roughly 83,000, 20% have a hit.
growth reference
MEASUREMENT LABEL: growth (%)

compound="CCC1C(=O)COC1=O (stereo not drawn)" reading=62.7
compound=Clc1ccc2c(NCCNc3nc(-c4ccccc4)cc(-c4ccccc4)n3)ccnc2c1 reading=-54.3
compound=COC(=O)[C@]12CC[C@@H](C)[C@H](C)[C@@H]1C1=CC[C@@H]3[C@@]4(C)C=C(O)C(=O)C(C)=C4CC[C@@]3(C)[C@]1(C)CC2 reading=11.7
compound=COc1cc(/C=N/Nc2ncnc3c2c(C)nn3-c2ccc(F)cc2)ccc1O reading=92.3
compound=C=C(C)[C@@H]1CC[C@]2(C)[C@H](CC[C@@H]3[C@H]4[C@H]5OC[C@@]4(CCC5(C)C)CC[C@]32C)[C@@]1(C)CCCN reading=6.05
compound=O=C(O)c1cccc2c1Cc1cc([N+](=O)[O-])ccc1-2 reading=112
compound=Cc1cc(N2CCOCC2)nc(N(CCCNc2ccnc3cc(Cl)ccc23)Cc2ccco2)n1 reading=-2.68
compound=C[C@]12CC[C@@H]3c4ccc(O)cc4CC[C@H]3[C@@H]1C[C@H](O)[C@@H]2O reading=109
compound=COc1cnc2c(c1)C(=O)c1c-2n(CCCNC2=NCCS2)c(=O)c2cc([N+](=O)[O-])ccc12 reading=-42.4
compound=Oc1ccccc1/C=N\NC(=S)Nc1ccc(F)cc1 reading=39.1
compound="Oc1ccc(CCC2CCCC(CCc3ccc(OCCF)cc3)N2)cc1 (stereo not drawn)" reading=87.2
compound=O=C(/C=C/c1ccc2ccccc2c1)Nc1ncc(Cc2ccccc2)s1 reading=69.5
compound="N#CC1C(=N)Cc2ccccc2-c2ccccc21 (stereo not drawn)" reading=12.4
compound=CCCCn1c(-c2ccc(O)cc2)cn2c3c(=O)[nH]c(=O)n(C)c3nc12 reading=77.6
compound=CCN(CC)C(=O)CCCCCn1c2ccccc2c2c3c(c4c5ccccc5[nH]c4c21)C(=O)N(O)C3=O reading=-43.7
compound=COc1ccc(/C=C/C(=O)NCCO)cc1 reading=96.1
compound=CCOc1ccc(NC(=O)c2ccccc2-c2ccccc2C(=O)O)cc1 reading=107
compound="COc1ccc2c(c1)C(Br)=C(CCO)C2c1ccccc1 (stereo not drawn)" reading=41.8
compound=C/C(=C(/c1ccccc1)c1ccc(N2C(=O)c3cccc4c(NCc5ccccc5)ccc(c34)C2=O)cc1)c1ccccc1 reading=112
compound=CCN1CCN(C(=O)[C@]23CC[C@@H](C)[C@H](C)[C@H]2C2=CC[C@@H]4[C@@]5(C)C/C(=C/c6cccc(OC)c6OC)C(=O)C(C)(C)[C@@H]5CC[C@@]4(C)[C@]2(C)CC3)CC1 reading=21.5
compound=C=C1C(=O)O[C@H]2[C@H]1CC/C(Cn1cc(-c3ccc(OC)cc3)nn1)=C\CC[C@@]1(C)O[C@@H]21 reading=-82
compound=C=C(C)[C@@H]1CC[C@]2(C(=O)N3CCN(C)CC3)CC[C@]3(C)[C@H](CC[C@@H]4[C@@]5(C)C/C(=C/c6ccc(C(F)(F)F)cc6)C(=O)C(C)(C)[C@@H]5CC[C@]43C)[C@@H]12 reading=95.7
compound=Cc1ccc(-c2nn(Cc3cn(-c4cc(C)nc5ccccc45)nn3)c3ncnc(N)c23)cc1 reading=49.8
compound=C[N+](C)(CCCCCC[N+](C)(C)C1c2ccccc2-c2ccccc21)C1c2ccccc2-c2ccccc21 reading=110
compound=CC/C(=N/NC(N)=O)c1ccccc1 reading=104
compound=Clc1cc(Cl)cc(Nc2ccc3c(OCCCN4CCOCC4)cccc3n2)c1 reading=-64.5
compound=CCc1ccccc1NC(=O)c1sc2nc3c(cc2c1N)CCCC3 reading=13.5
compound=O=C1Nc2ccccc2/C1=C/c1cn(CCCn2c3ccccc3c(=O)c3ccccc32)c2ccccc12 reading=91.8
compound=Fc1cccc(-c2[nH]nc3nc(Nc4cccnc4)sc23)c1 reading=14.5
compound=C=C(C)[C@@H]1CC[C@]2(C)CC[C@]3(C)[C@H](CC[C@@H]4[C@@]5(C)CCCNC(C)(C)[C@@H]5CC[C@]43C)[C@@H]12 reading=3.37
compound=Cc1nn(-c2ccc(Cl)cc2)c(=O)n1CCn1cnc2ccccc21 reading=102
compound=CC1(C)C(=O)/C(=C\c2cccnc2)C[C@]2(C)[C@H]3CC[C@@H]4[C@@H](C(=O)/C=C/c5ccncc5)CC[C@@]4(C)[C@]3(C)CC[C@@H]12 reading=9.87
compound=COc1ccccc1CNc1nc(N)nc2[nH]c3ccc(O)cc3c12 reading=18.9
compound="Cc1ccc(C)c2c1CCC2C(C)C (stereo not drawn)" reading=105
compound=O=C1c2cc3c(cc2-c2c1c1ccc(F)cc1c(=O)n2CCCN1CCOCC1)OCO3 reading=42
compound=Nc1c(C(=O)Nc2cccc3ccccc23)sc2nc3c(cc12)CCCC3 reading=2.73
compound=O=C1NC(c2ccc(Cl)c(Cl)c2)=C/C1=C\c1ccccc1 reading=87.7
compound=CCCCC[C@H]1C/C=C2/C(=O)C(Cl)=C[C@@H]2C/C=C\CCCC(=O)O1 reading=-22.6

Source listed as PubChem BioAssay (NCI).
